The values you see were collected from PubChem BioAssay.

System: Plasmodium falciparum Sir2 (PF13_0152, Sir2A)
Assay: pfSir2 binders on small-molecule microarrays, primary screen, biochemical, small-molecule microarray, 635 nm fluorescence (AID 1098);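 also: score merges spot fluorescence intensity with its signal-to-noise ratio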
Conditions: small-molecule microarray binding, fluorescence 635 nm; higher = more signal
Values of composite z-score greater than or equal to 0.9 map to Yes; values below map to No.

See these solved cases before continuing.
compound="CC=CC(O)C1C=CC2C(=O)N(C)C(=O)C2N1Nc1ccc([N+](=O)[O-])cc1[N+](=O)[O-] (stereo not drawn)" measured_on="Plasmodium falciparum Sir2 (PF13_0152, Sir2A)" assigned_category=Yes
compound=O=C(O)[C@]1(Cc2ccccc2)N=C(c2ccc(OCCCO)cc2)O[C@@H]1c1ccccc1 measured_on="Plasmodium falciparum Sir2 (PF13_0152, Sir2A)" assigned_category=No
compound="O=C1NC(=O)C2C1C=CC(C(O)c1ccc(Br)cc1)N2Nc1ccccn1 (stereo not drawn)" measured_on="Plasmodium falciparum Sir2 (PF13_0152, Sir2A)" assigned_category=No
compound=COCCOC(=O)N1C(=O)[C@@]2(c3cc(C#Cc4ccc(OC)cc4)ccc31)[C@H](C(=O)N1CCN(c3ncccn3)CC1)[C@H]1C(=O)O[C@H](c3ccccc3)[C@H](c3ccccc3)N1[C@@H]2c1ccccc1OCCO measured_on="Plasmodium falciparum Sir2 (PF13_0152, Sir2A)" assigned_category=No

Check this compound for composite z-score at or above 0.9: "C=CCOC(=O)[C@@H]1[C@H]2C(=O)O[C@H](c3ccccc3)[C@H](c3ccccc3)N2[C@H](c2ccc(OCCOC(=O)[C@H]3C[C@H]4C(=O)N[C@@H](CCCCNC(C)=O)C(=O)N4[C@H]3c3cccc(OCCO)c3)cc2)[C@@]12C(=O)Nc1ccc(I)cc12"
Yes
